Molecular target: Tyrosine-protein phosphatase non-receptor type 1 (Homo sapiens, UniProt P18031)
Sequence (P18031 whole entry): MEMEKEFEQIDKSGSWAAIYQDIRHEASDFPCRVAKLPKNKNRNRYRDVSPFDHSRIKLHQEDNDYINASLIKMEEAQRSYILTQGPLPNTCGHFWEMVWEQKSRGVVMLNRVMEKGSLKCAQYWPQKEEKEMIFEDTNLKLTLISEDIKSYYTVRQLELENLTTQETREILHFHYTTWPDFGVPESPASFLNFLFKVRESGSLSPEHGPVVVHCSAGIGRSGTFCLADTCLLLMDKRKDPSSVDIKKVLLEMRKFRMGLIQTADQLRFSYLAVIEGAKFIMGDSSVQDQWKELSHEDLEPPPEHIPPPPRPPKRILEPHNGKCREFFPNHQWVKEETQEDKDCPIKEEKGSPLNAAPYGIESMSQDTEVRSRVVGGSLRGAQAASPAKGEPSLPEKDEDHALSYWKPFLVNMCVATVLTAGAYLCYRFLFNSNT
pIC50: −log10 of the molar value.
Quantity kind: pIC50

O=C(O)c1ccc(/C=C/C(=O)c2cccc([N+](=O)[O-])c2)cc1: 5.49

---

Biological target: Tyrosine-protein phosphatase YopH (Yersinia enterocolitica, UniProt P15273)
Sequence (P15273 whole entry): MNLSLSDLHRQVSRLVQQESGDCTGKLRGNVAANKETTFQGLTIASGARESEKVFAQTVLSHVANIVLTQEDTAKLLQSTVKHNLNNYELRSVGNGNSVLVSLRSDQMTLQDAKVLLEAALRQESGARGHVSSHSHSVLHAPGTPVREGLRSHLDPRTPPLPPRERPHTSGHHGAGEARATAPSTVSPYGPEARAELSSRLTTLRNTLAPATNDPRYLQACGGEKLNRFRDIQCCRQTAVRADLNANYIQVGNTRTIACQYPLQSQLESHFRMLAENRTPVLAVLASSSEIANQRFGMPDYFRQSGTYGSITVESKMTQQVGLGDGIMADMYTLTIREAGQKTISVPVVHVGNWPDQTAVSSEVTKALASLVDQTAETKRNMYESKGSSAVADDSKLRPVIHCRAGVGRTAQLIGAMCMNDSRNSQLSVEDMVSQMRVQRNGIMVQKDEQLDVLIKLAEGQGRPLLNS
Assay: Non-competitive inhibition of Yersinia enterocolitica YopH assessed as inhibition constant using varying level of pNPP as substrate by Lineweaver-Burk plot analysis
Quantity kind: Ki

O=C(O)c1ccc(/C=C/C(=O)c2cccc([N+](=O)[O-])c2)cc1: 1 µM

---

Molecular target: Tyrosine-protein phosphatase non-receptor type 12 (Homo sapiens, UniProt Q05209)
Sequence (Q05209 whole entry): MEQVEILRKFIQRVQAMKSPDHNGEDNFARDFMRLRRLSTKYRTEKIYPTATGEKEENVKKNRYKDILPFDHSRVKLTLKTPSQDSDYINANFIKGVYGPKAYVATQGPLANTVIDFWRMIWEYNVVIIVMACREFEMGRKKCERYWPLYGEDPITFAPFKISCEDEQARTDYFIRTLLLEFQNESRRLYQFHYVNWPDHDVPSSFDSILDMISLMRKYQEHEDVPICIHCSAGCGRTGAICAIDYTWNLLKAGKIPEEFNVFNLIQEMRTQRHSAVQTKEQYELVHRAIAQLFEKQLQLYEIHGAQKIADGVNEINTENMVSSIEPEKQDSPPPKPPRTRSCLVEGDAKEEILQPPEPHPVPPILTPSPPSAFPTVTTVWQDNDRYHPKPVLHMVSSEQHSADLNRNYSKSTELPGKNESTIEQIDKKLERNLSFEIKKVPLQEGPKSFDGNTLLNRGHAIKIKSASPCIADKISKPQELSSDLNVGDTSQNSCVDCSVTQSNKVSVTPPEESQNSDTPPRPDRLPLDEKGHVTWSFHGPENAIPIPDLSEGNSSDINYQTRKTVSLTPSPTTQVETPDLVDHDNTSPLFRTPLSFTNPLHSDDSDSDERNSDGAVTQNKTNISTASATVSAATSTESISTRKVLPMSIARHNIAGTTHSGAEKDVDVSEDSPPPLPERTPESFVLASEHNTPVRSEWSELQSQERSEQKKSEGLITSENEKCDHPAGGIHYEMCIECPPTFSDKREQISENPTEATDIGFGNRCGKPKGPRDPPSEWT
Quantity kind: IC50 (µM)

O=C(O)c1ccc(/C=C/C(=O)c2cccc([N+](=O)[O-])c2)cc1: 10.9

---

Molecular target: Low molecular weight protein-tyrosine phosphatase A (Mycobacterium tuberculosis)
Sequence (P9WIA1 whole entry): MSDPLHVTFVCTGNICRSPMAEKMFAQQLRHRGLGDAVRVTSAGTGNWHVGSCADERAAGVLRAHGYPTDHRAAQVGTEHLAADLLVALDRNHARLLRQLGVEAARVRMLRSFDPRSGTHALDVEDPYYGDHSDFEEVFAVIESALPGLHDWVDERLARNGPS
pKi: −log10 of the molar value.
Quantity kind: pKi

O=C(O)c1ccc(/C=C/C(=O)c2cccc([N+](=O)[O-])c2)cc1: 6.10

---

Biological target: UniProt P18031
Quantity kind: Ki (nM)

O=C(O)c1ccc(/C=C/C(=O)c2cccc([N+](=O)[O-])c2)cc1: 1400

---

Molecular target: Tyrosine-protein phosphatase YopH (Yersinia enterocolitica)
Assay: Inhibition of Yersinia enterocolitica YopH
pIC50: −log10 of the molar value.
Quantity kind: pIC50

O=C(O)c1ccc(/C=C/C(=O)c2cccc([N+](=O)[O-])c2)cc1: 5.59
